- Test system: conscious rats
- EXPERIMENT NOTES: Determination of CNS toxicity: convulsions in conscious rats on increasing i.v. infusion
- Format: in vivo
- SETTINGS: rat, in vivo, iv
Where a name gives a salt, the structure may show the parent alone.

MOLECULE	convulsion dose [µmol/kg/min]
Cl.O=C1CCN(C2CCCC[C@@H]2OCC(c2ccccc2)c2ccccc2)C1 (stereo partly drawn)	21
COc1ccc(CCOC2CCCC[C@H]2N2CCOCC2)cc1OC.Cl (stereo partly drawn)	16
Cl.OC1CCN(C2CCCC[C@@H]2OCCc2c(Cl)cccc2Cl)C1 (stereo partly drawn)	8
COc1ccc(CCCO[C@H]2CCCCC2N2CCOCC2)cc1OC.Cl (stereo partly drawn)	16
Brc1ccccc1CCO[C@H]1CCCCC1N1CCOCC1 (stereo partly drawn)	16
Cl.OC1CCN(C2CCCC[C@@H]2OCCc2ccccc2Br)C1 (stereo partly drawn)	13
Cl.O[C@@H]1CCN(C2CCCC[C@@H]2OCCc2cc3ccccc3o2)C1 (stereo partly drawn)	10.67
Cl.OC1CCN(C2CCCC[C@@H]2OCCn2ccc3ccccc32)C1 (stereo partly drawn)	16
COc1ccc(CCO[C@H]2CCCCC2N2CCC(O)C2)cc1OC (stereo partly drawn) [Compound 3, monohydrochloride]	64

----------
convulsion dose listing for selected molecules.
- Test system: conscious rats
- EXPERIMENT NOTES: Determination of CNS toxicity: convulsions in conscious rats on increasing i.v. infusion
- Format: in vivo
- SETTINGS: rat, in vivo, iv

MOLECULE	convulsion dose
c1ccc2c(CCO[C@H]3CCCCC3N3CCOCC3)cccc2c1 (stereo partly drawn)	16 µmol/kg/min
c1ccc2c(CCO[C@H]3CCCCC3N3CCOCC3)csc2c1 (stereo partly drawn)	8 µmol/kg/min
COc1ccc(CCO[C@H]2CCCCC2N2CC[C@H](O)C2)cc1OC.Cl (stereo partly drawn)	64 µmol/kg/min
COc1ccc(CCO[C@H]2CCCCC2N2CC[C@H](OCc3ccccc3)C2)cc1OC.Cl (stereo partly drawn)	8 µmol/kg/min
COc1ccc(CCO[C@H]2CCCCC2N2CCOCC2)cc1OC (stereo partly drawn)	16 µmol/kg/min
CC(=O)OC1CCN([C@@H]2CCCCC2OCCc2cccc3ccccc23)C1.Cl (stereo partly drawn)	8 µmol/kg/min
COc1ccc(CCO[C@H]2CCCC[C@@H]2N2CC[C@@H](O)C2)cc1OC.Cl	64 µmol/kg/min
COc1ccc(CCOC2CCCC[C@H]2N2CCC(=O)C2)cc1OC.Cl (stereo partly drawn)	32 µmol/kg/min
COc1ccc(CCO[C@H]2CCCC[C@@H]2N2CC[C@H](O)C2)cc1OC.Cl	64 µmol/kg/min

----------
- Tested on: conscious rats
- EXPERIMENT NOTES: Determination of CNS toxicity: convulsions in conscious rats on increasing i.v. infusion
- Type: in vivo
- SETTINGS: rat, in vivo, iv
Each entry below lists one item and its recorded convulsion dose value.

COMPOUND	UNIT STRING	convulsion dose
Brc1cccc(CCO[C@H]2CCCCC2N2CCOCC2)c1 (some centres unmarked)	µmol/kg/min	16
COc1ccc(CCO[C@H]2CCCCC2N2CCC[C@@H]2CO)cc1OC.Cl (some centres unmarked)	µmol/kg/min	16
Cl.O=C1CCN([C@@H]2CCCCC2OCc2c(Cl)cccc2Cl)C1 (some centres unmarked)	µmol/kg/min	32
COc1ccc(CCOC2CCCC[C@H]2N2CCC(F)C2)cc1OC.Cl (some centres unmarked)	µmol/kg/min	10.67
Cl.FC(F)(F)c1ccccc1CCO[C@H]1CCCC[C@H]1N1CCOCC1 (racemic)	µmol/kg/min	16
